Experiment: NCI Yeast Anticancer Drug Screen. Data for the CLN2oe strain (AID 163);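 also: 0% = growth of vehicle-only control cultures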
Conditions: S. cerevisiae CLN2oe strain, at 1.2 µM, stronger effect = higher value
About 79,000 compounds went through this panel and 15% of them were active in at least one assay; those are over-represented in the sample as a whole.
Listed next: entries and their corresponding growth inhibition.
ASSAY READOUT: growth inhibition (%)

[[record]]
structure_notation = "Cc1nc(-[n+]2nc(-c3ccncc3)nn2-c2ccccc2)sc1C"
assay_readout = "growth inhibition"
observed = -4

[[record]]
structure_notation = "Cn1ccnc1Oc1ccc(Cl)cc1"
assay_readout = "growth inhibition"
observed = -8

[[record]]
structure_notation = "O=C(NC(Nc1ccc(F)c(Cl)c1)(C(F)(F)F)C(F)(F)F)C(C(F)(F)F)C(F)(F)F"
assay_readout = "growth inhibition"
observed = 9

[[record]]
structure_notation = "O=C(NNc1ccnc2cc(Cl)ccc12)/C(=C\\c1ccccc1Cl)NC(=O)c1ccccc1"
assay_readout = "growth inhibition"
observed = 11

[[record]]
structure_notation = "O=C1Nc2ccccc2/C1=C/COc1ccccc1"
assay_readout = "growth inhibition"
observed = 0

[[record]]
structure_notation = "COc1ccc2c(c1)C(=O)c1ccccc1C2"
assay_readout = "growth inhibition"
observed = -3


Sourced from PubChem BioAssay (NCI)
